- Tested on: Lichtheimia corymbifera
- test: microbe, parasite or virus in culture
- Assay type: functional
- statedConditions: Lichtheimia corymbifera, 272, 24 h
- Description: Antifungal activity against Absidia corymbifera 272 after 24 hrs by modified standard CSLI M27-A2 method
Param label: returns t when MIC < 8 µM, returns f otherwise, including exact equality.

>>> classification("CCCCCCCCCCCC[n+]1ccccc1")
"f"
>>> classification("CCCCCCCCCCCC[n+]1cccc2cc(O)ccc21.[Br-]")
"t"
>>> classification("CCCCCCCCCCCCCC[n+]1cccc2cc(O)ccc21.[Br-]")
"f"
>>> classification("CCCCCCCCCCCCCC[n+]1ccccc1")
"f"
>>> classification("CCCCCCCCCCCCCC[N+](C)(C)Cc1ccccc1")
"f"

* * *

The reader will find reported MIC95 values listed item by item below.
- System: Klebsiella pneumoniae
- test: microbe, parasite or virus in culture
- Format: functional
- statedConditions: J 14368/08, 48 h
- Description: Antibacterial activity against Klebsiella pneumoniae J 14368/08 after 48 hrs by microdilution broth method
measuredProperty: MIC95

>>> valuereported("CCCCCCCCCCCCCCCC[N+](C)(C)Cc1ccccc1")
"7.81 µM"
>>> valuereported("CCCCCCCCCCCCCC[n+]1cccc2cc(O)ccc21.[Br-]")
"31.2 µM"
>>> valuereported("CCCCCCCCCCCCCCCC[n+]1cccc2cc(O)ccc21.[Br-]")
"> 500 µM"
>>> valuereported("CCCCCCCCCCCC[N+](C)(C)Cc1ccccc1")
"0.98 µM"
>>> valuereported("CCCCCCCCCCCCCC[n+]1ccccc1")
"7.81 µM"
>>> valuereported("CCCCCCCCCCCC[n+]1ccccc1")
"7.81 µM"
>>> valuereported("CCCCCCCCCCCC[n+]1cccc2cc(O)ccc21.[Br-]")
"3.91 µM"
>>> valuereported("CCCCCCCCCCCCCC[N+](C)(C)Cc1ccccc1")
"7.81 µM"

* * *

- System: Klebsiella pneumoniae
- test: Bactericidal activity against Klebsiella pneumoniae J 14368/08 after 48 hrs by microdilution broth method
- Assay type: functional
- statedConditions: J 14368/08, 48 h, read-out: MBC>99.9
measuredProperty: MBC (µM)

>>> valuereported("CCCCCCCCCCCCCCCC[N+](C)(C)Cc1ccccc1")
7.81
>>> valuereported("CCCCCCCCCCCC[n+]1ccccc1")
7.81
>>> valuereported("CCCCCCCCCCCC[N+](C)(C)Cc1ccccc1")
0.98
>>> valuereported("CCCCCCCCCCCCCC[N+](C)(C)Cc1ccccc1")
7.81
>>> valuereported("CCCCCCCCCCCCCC[n+]1cccc2cc(O)ccc21.[Br-]")
62.5
>>> valuereported("CCCCCCCCCCCC[n+]1cccc2cc(O)ccc21.[Br-]")
3.91
>>> valuereported("CCCCCCCCCCCCCC[n+]1ccccc1")
7.81
>>> valuereported("CCCCCCCCCCCCCCCC[n+]1ccccc1 [CETYLPYRIDINIUM BROMIDE]")
7.81

* * *

- System: Staphylococcus aureus
- test: microbe, parasite or virus in culture
- Format: functional
- statedConditions: CCM 4516/08, 48 h
- Description: Antibacterial activity against Staphylococcus aureus CCM 4516/08 after 48 hrs by microdilution broth method
measuredProperty: MIC95 (µM)

>>> valuereported("CCCCCCCCCCCC[N+](C)(C)Cc1ccccc1")
1.95
>>> valuereported("CCCCCCCCCCCCCCCC[N+](C)(C)Cc1ccccc1")
0.98
>>> valuereported("CCCCCCCCCCCCCC[n+]1cccc2cc(O)ccc21.[Br-]")
1.95
>>> valuereported("CCCCCCCCCCCCCCCC[n+]1cccc2cc(O)ccc21.[Br-]")
0.98

* * *

- Test system: Aspergillus fumigatus
- test: microbe, parasite or virus in culture
- Type: functional
- statedConditions: Aspergillus fumigatus, 231, 24 h
- Description: Antifungal activity against Aspergillus fumigatus 231 after 24 hrs by modified standard CSLI M27-A2 method
Let's look at some molecules and their measured MIC.
measuredProperty: MIC (µM)

>>> valuereported("CCCCCCCCCCCCCCCC[N+](C)(C)Cc1ccccc1")
7.81
>>> valuereported("CCCCCCCCCCCC[N+](C)(C)Cc1ccccc1")
0.98
>>> valuereported("CCCCCCCCCCCCCC[n+]1ccccc1")
15.6
>>> valuereported("CCCCCCCCCCCCCC[N+](C)(C)Cc1ccccc1")
7.81
>>> valuereported("CCCCCCCCCCCCCC[n+]1cccc2cc(O)ccc21.[Br-]")
15.6

* * *

- Tested on: Lichtheimia corymbifera
- test: microbe, parasite or virus in culture
- Format: functional
- statedConditions: Lichtheimia corymbifera, 272, 24 h
measuredProperty: MIC (µM)

>>> valuereported("CCCCCCCCCCCCCCCC[N+](C)(C)Cc1ccccc1")
7.81
>>> valuereported("CCCCCCCCCCCC[N+](C)(C)Cc1ccccc1")
7.81
>>> valuereported("CCCCCCCCCCCCCCCC[n+]1cccc2cc(O)ccc21.[Br-]")
7.81
